# System: Klebsiella pneumoniae FADDI-KP032
# Type: cell-based
# conditions: K. pneumoniae FADDI-KP032; CAMHB broth microdilution
Where a SMILES comes first, the peptide text is derived from it. Bridges are numbered along the chain shown (N, C = ends). [ ]: non-standard residue; d: D form. The star is where a group is joined. X66 = O=C(c1c[nH]c(-c2ccccc2)n1)*; X48 = O=C(c1ccc(Cl)nc1)*; Dab = NCC[C@H](N)C(=O)O; Abu = CC[C@H](N)C(=O)O; Dap = NC[C@H](N)C(=O)O
Entries and their Minimum inhibitory concentration
# number only, unit µg/mL dropped from output

[
  {
    "molecule": "CC[C@@H]1NC(=O)[C@@H](CC(C)C)NC(=O)[C@H](CCN)NC(=O)[C@@H](NC(=O)[C@H](CN)NC(=O)[C@@H](NC(=O)[C@H](CCN)NC(=O)c2ccc(Cl)nc2)[C@@H](C)O)CCNC(=O)[C@H]([C@@H](C)O)NC(=O)[C@H](CCN)NC(=O)[C@H](CCN)NC1=O [Compound 4] (X48-[Dab]T[Dap][Dab][Dab][dL][Abu][Dab][Dab]T; lactam 4-C)",
    "measured-on": "Klebsiella pneumoniae FADDI-KP032",
    "Minimum inhibitory concentration [µg/mL]": 1
  }
]

// next entry
Value of Minimum inhibitory concentration reported for the molecule CC[C@@H]1NC(=O)[C@@H](CC(C)C)NC(=O)[C@H](CCN)NC(=O)[C@@H](NC(=O)[C@H](CN)NC(=O)[C@@H](NC(=O)[C@H](CCN)NC(=O)c2c[nH]c(-c3ccccc3)n2)[C@@H](C)O)CCNC(=O)[C@H]([C@@H](C)O)NC(=O)[C@H](CCN)NC(=O)[C@H](CCN)NC1=O [Compound 82] (X66-[Dab]T[Dap][Dab][Dab][dL][Abu][Dab][Dab]T; lactam 4-C) is 0.5
